Reported EC50 is given for each of the following binders.
molecular target: T1, rhNav1.7α + β1-β2-β3 (rhesus monkey); experiment: binding FACS, CHO FlpIn cells
T1 construct: also called rhNav1.7-beta1-beta2-beta3; rhesus Nav1.7α

BINDER | EC50 (nM)
F010301892 (VHH, V33L vs F0103464B09 (Kabat); also called F0103464B09(V33L)) VHH: EVQLVESGGGLVQPGGSLRLSCATTSRAFIRDLFTGWYRRVPGKERELVARIYNGGNTNYADFAKGRFSISRDNAKKMVTLRMSNLKPEDTGVYYCLFSGTINTGREYRSGDYWGQGTLVTVSS | 9.1
F010302343 (VHH) VHH: EVQLVESGGGVVQPGGSLRLSCAASSRQFIRDVFTGWYRQAPGKQRELVARIYESGNTQYADSAKGRFTISRDNAKKTVYLQMNSLRPEDTALYYCLFSGTISTGREYRSGDYWGQGTLVTVSS | 18
F010301885 (VHH, N53E vs F0103464B09 (Kabat)) VHH: EVQLVESGGGLVQPGGSLRLSCATTSRAFIRDVFTGWYRRVPGKERELVARIYEGGNTNYADFAKGRFSISRDNAKKMVTLRMSNLKPEDTGVYYCLFSGTINTGREYRSGDYWGQGTLVTVSS | 18
F010302340 (VHH) VHH: EVQLVESGGGVVQPGGSLRLSCAASHRAFIRDLFTGWYRRAPGKQRELVARIYESGNTNYADSAKGRFTISRDNAKKTVYLQMNSLRPEDTALYYCLFSGTISTGREYRSGDYWGQGTLVTVSS | 13
